Reference source for all entries: patent EP4516912A1

# target.system: mAtDHQS1 (Arabidopsis thaliana, UniProt Q8VYV7)
# Sequence (Q8VYV7 59-442): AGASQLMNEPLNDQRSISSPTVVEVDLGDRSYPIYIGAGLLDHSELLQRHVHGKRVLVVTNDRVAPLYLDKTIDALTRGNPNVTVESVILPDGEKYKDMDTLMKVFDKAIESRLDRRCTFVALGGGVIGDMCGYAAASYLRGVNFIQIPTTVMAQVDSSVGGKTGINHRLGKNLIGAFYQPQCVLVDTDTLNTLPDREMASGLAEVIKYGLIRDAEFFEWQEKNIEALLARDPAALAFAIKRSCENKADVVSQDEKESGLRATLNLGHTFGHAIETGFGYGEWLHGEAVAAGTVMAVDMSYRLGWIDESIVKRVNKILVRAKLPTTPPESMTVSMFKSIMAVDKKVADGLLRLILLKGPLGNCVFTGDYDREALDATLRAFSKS
endpoint.label: Kd
Give me the value, and tack the unit on after it.

Field request: Kd | item: O=C(O)C(=O)C[C@@H](O)[C@H](O)[C@H](O)COP(=O)(O)O [DAHP, reference compound]
33 µM
